# Measurement Notes: Solubility of ITE in conventional solvents
# Assay type: physicochemical
# Condition Notes: ethanol, organic solvent or mixture
Endpoint Label: solubility

Prompt: Which solubility is reported for this compound? COC(=O)c1csc(C(=O)c2c[nH]c3ccccc23)n1
Response: ~3.3 mM

----------
# Measurement Notes: Solubility of ITE in conventional solvents
# Format: physicochemical
# Condition Notes: water
Endpoint Label: solubility

Prompt: Find the recorded solubility belonging to COC(=O)c1csc(C(=O)c2c[nH]c3ccccc23)n1 and report it.
Response: ~115 µM
